Target: CYP3A4 (Homo sapiens)
Construct: Pooled (n≧15 donors) human hepatic microsomal fraction was obtained from BD-Gentest; tissue BD-Gentest (Woburn, Mass.); host or cells: pooled human liver microsomes (n≧15 donors)
Assay: CYP3A inhibition assay in pooled human hepatic microsomal fraction (midazolam 1-hydroxylase and testosterone 6β-hydroxylase activities)
Type: biochemical
Conditions: human hepatic microsomes, probe activity midazolam 1-hydroxylase; read-out: CYP3A4 IC50 (μM) (midazolam)
Recorded IC50, one value per entry.

Some solved entries appear below for comparison.
# Molecule, IC50
records = [
    ("CC(C)[C@H]1CC[C@H](C(=O)N[C@H](CC[C@H](Cc2ccccc2)NC(=O)OCc2cncs2)Cc2ccccc2)CC1 [Compound 4]", "< 0.1 µM"),
    ("CC(C)CC(C)OC(=O)N[C@H](CC[C@H](Cc1ccccc1)NC(=O)OCc1cncs1)Cc1ccccc1 (stereo partly shown) [Compound 11]", "0.25 µM"),
    ("CCC(C)OC(=O)N[C@H](CC[C@H](Cc1ccccc1)NC(=O)OCc1cncs1)Cc1ccccc1 (stereo partly shown) [Compound 9]", "0.13 µM"),
]

API: the following record is the query input.
(Q) Any idea what its IC50 is? The molecule is CCC(C)NC(=O)N[C@H](CC[C@H](Cc1ccccc1)NC(=O)OCc1cncs1)Cc1ccccc1 (stereo partly shown) [Compound 15]
(A) < 0.1 µM

====

Target: CYP3A4 (Homo sapiens, UniProt P08684)
Construct: Pooled (n≧15 donors) human hepatic microsomal fraction was obtained from BD-Gentest; tissue BD-Gentest (Woburn, Mass.); host or cells: pooled human liver microsomes (n≧15 donors)
Sequence (P08684 2-503): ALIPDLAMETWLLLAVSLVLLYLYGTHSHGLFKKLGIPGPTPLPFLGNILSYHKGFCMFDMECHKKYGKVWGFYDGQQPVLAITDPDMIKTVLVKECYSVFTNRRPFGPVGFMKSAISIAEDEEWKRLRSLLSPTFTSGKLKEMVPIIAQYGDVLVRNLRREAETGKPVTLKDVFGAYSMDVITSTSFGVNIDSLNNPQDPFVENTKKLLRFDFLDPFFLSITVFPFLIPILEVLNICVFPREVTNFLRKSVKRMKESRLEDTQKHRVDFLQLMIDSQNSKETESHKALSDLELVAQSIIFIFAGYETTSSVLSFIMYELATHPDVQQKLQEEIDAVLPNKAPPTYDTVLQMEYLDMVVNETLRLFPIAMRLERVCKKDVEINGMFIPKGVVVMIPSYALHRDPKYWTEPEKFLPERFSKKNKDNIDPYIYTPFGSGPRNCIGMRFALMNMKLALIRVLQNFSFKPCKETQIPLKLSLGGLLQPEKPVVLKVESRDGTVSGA
Assay: CYP3A inhibition assay in pooled human hepatic microsomal fraction (midazolam 1-hydroxylase and testosterone 6β-hydroxylase activities)
Type: biochemical
Details: human hepatic microsomes, probe activity testosterone 6β-hydroxylase, substrate 50 μM; read-out: CYP3A4 IC50 (μM) (testosterone)
Reported metric: IC50 (µM)
Report the value in µM with no unit label.

# Compound, Assay system, IC50, µM
measured = [
    ("CCC(CC)NC(=O)N[C@H](CC[C@H](Cc1ccccc1)NC(=O)OCc1cncs1)Cc1ccccc1 [Compound 16]", "CYP3A4 (Homo sapiens, UniProt P08684)", 0.41),
    ("CCC(C)NC(=O)N[C@H](CC[C@H](Cc1ccccc1)NC(=O)OCc1cncs1)Cc1ccccc1 (stereo partly shown) [Compound 15]", "CYP3A4 (Homo sapiens, UniProt P08684)", 0.25),
    ("CC(C)OC(=O)N[C@H](CC[C@H](Cc1ccccc1)NC(=O)OCc1cncs1)Cc1ccccc1 [Compound 8]", "CYP3A4 (Homo sapiens, UniProt P08684)", 0.38),
    ("CC(C)[C@H]1CC[C@H](C(=O)N[C@H](CC[C@H](Cc2ccccc2)NC(=O)OCc2cncs2)Cc2ccccc2)CC1 [Compound 4]", "CYP3A4 (Homo sapiens, UniProt P08684)", 3.4),
    ("C[C@H]1CC[C@H](C(=O)N[C@H](CC[C@H](Cc2ccccc2)NC(=O)OCc2cncs2)Cc2ccccc2)CC1 [Compound 3]", "CYP3A4 (Homo sapiens, UniProt P08684)", 0.27),
    ("CC(C)CC(C)OC(=O)N[C@H](CC[C@H](Cc1ccccc1)NC(=O)OCc1cncs1)Cc1ccccc1 (stereo partly shown) [Compound 11]", "CYP3A4 (Homo sapiens, UniProt P08684)", 0.71),
]

(Q) Any idea what its IC50 is? The compound is CC(C)NC(=O)N[C@H](CC[C@H](Cc1ccccc1)NC(=O)OCc1cncs1)Cc1ccccc1 [Compound 14]
(A) 0.27

(Q) Any idea what its IC50 is? The compound is CC(C)CC(OC(=O)N[C@H](CC[C@H](Cc1ccccc1)NC(=O)OCc1cncs1)Cc1ccccc1)C(C)C (stereo partly shown) [Compound 12]
(A) 0.4

(Q) Any idea what its IC50 is? The compound is CC[C@H](C)C(=O)N[C@H](CC[C@H](Cc1ccccc1)NC(=O)OCc1cncs1)Cc1ccccc1 [Compound 7]
(A) 0.36

(Q) Any idea what its IC50 is? The compound is CC(CC(C)(C)C)OC(=O)N[C@H](CC[C@H](Cc1ccccc1)NC(=O)OCc1cncs1)Cc1ccccc1 (stereo partly shown) [Compound 13]
(A) 0.54

(Q) Any idea what its IC50 is? The compound is CCC(C)OC(=O)N[C@H](CC[C@H](Cc1ccccc1)NC(=O)OCc1cncs1)Cc1ccccc1 (stereo partly shown) [Compound 9]
(A) 0.43

(Q) Any idea what its IC50 is? The compound is CC(C)S(=O)(=O)N[C@H](CC[C@H](Cc1ccccc1)NC(=O)OCc1cncs1)Cc1ccccc1 [Compound 17]
(A) 0.32

(Q) Any idea what its IC50 is? The compound is CCC(C)S(=O)(=O)N[C@H](CC[C@H](Cc1ccccc1)NC(=O)OCc1cncs1)Cc1ccccc1 (stereo partly shown) [Compound 18]
(A) 0.34

(Q) Any idea what its IC50 is? The compound is CC[C@@H](C(=O)N[C@H](CC[C@H](Cc1ccccc1)NC(=O)OCc1cncs1)Cc1ccccc1)c1ccccc1 [Compound 6]
(A) 1.4

(Q) Any idea what its IC50 is? The compound is CCC(CC)OC(=O)N[C@H](CC[C@H](Cc1ccccc1)NC(=O)OCc1cncs1)Cc1ccccc1 [Compound 10]
(A) 0.5

====

Molecular target: CYP3A4 (Homo sapiens, UniProt P08684)
Construct: Pooled (n≧15 donors) human hepatic microsomal fraction was obtained from BD-Gentest; tissue BD-Gentest (Woburn, Mass.); host or cells: pooled human liver microsomes (n≧15 donors)
Assay: CYP3A inhibition assay in pooled human hepatic microsomal fraction (midazolam 1-hydroxylase and testosterone 6β-hydroxylase activities)
Format: biochemical
Settings: human hepatic microsomes, probe activity midazolam 1-hydroxylase; read-out: CYP3A4 IC50 (μM) (midazolam)
Kindly apply the following: yes (1) if IC50 is less than 0.4 µM, no (0) in every other case.

Previously resolved entries follow.
# Molecule, Category label
rows = [
    ("C[C@H]1CC[C@H](C(=O)N[C@H](CC[C@H](Cc2ccccc2)NC(=O)OCc2cncs2)Cc2ccccc2)CC1 [Compound 3]", "yes (1)"),
    ("CC(C)NC(=O)N[C@H](CC[C@H](Cc1ccccc1)NC(=O)OCc1cncs1)Cc1ccccc1 [Compound 14]", "yes (1)"),
    ("CCC(CC)OC(=O)N[C@H](CC[C@H](Cc1ccccc1)NC(=O)OCc1cncs1)Cc1ccccc1 [Compound 10]", "yes (1)"),
]

(Q) For CCC(CC)NC(=O)N[C@H](CC[C@H](Cc1ccccc1)NC(=O)OCc1cncs1)Cc1ccccc1 [Compound 16] , is the recorded IC50 below the cut-off of 0.4 µM?
(A) yes (1)

====

Recorded IC50, one value per entry.
Target: CYP3A4 (Homo sapiens)
Construct: Pooled (n≧15 donors) human hepatic microsomal fraction was obtained from BD-Gentest; tissue BD-Gentest (Woburn, Mass.); host or cells: pooled human liver microsomes (n≧15 donors)
Assay: CYP3A inhibition assay in pooled human hepatic microsomal fraction (midazolam 1-hydroxylase and testosterone 6β-hydroxylase activities)
Format: biochemical
Conditions: human hepatic microsomes, probe activity midazolam 1-hydroxylase; read-out: CYP3A4 IC50 (μM) (midazolam)
Method: The initial mobile phase consisted of 94.9% water, 0.1% formic acid, and 5% acetonitrile (v/v/v) pumped at 0.5 mL/min. After 0.5 min the acetonitrile concentration was increased to 30% over 0.5 min. […] Rates of metabolite formation were determined from standard curves using PAR determined with authentic metabolite standards.

Some solved entries appear below for comparison.
# Molecule, IC50
records = [
    ("CC(CC(C)(C)C)OC(=O)N[C@H](CC[C@H](Cc1ccccc1)NC(=O)OCc1cncs1)Cc1ccccc1 (some centres unmarked)", "0.4 µM"),
    ("CC(C)CC(OC(=O)N[C@H](CC[C@H](Cc1ccccc1)NC(=O)OCc1cncs1)Cc1ccccc1)C(C)C (some centres unmarked)", "0.38 µM"),
    ("CC(C)OC(=O)N[C@H](CC[C@H](Cc1ccccc1)NC(=O)OCc1cncs1)Cc1ccccc1", "< 0.1 µM"),
    ("CCC(C)S(=O)(=O)N[C@H](CC[C@H](Cc1ccccc1)NC(=O)OCc1cncs1)Cc1ccccc1 (some centres unmarked)", "< 0.1 µM"),
    ("O=C(N[C@H](CC[C@H](Cc1ccccc1)NC(=O)[C@H]1CC[C@H](c2ccc(Cl)cc2)CC1)Cc1ccccc1)OCc1cncs1", "1.8 µM"),
    ("CC(C)S(=O)(=O)N[C@H](CC[C@H](Cc1ccccc1)NC(=O)OCc1cncs1)Cc1ccccc1", "< 0.1 µM"),
    ("CC[C@@H](C(=O)N[C@H](CC[C@H](Cc1ccccc1)NC(=O)OCc1cncs1)Cc1ccccc1)c1ccccc1", "0.51 µM"),
]

API: the following record is the query input.
(Q) Requested read-out IC50, target or system CYP3A4 (Homo sapiens), entry CC[C@H](C)C(=O)N[C@H](CC[C@H](Cc1ccccc1)NC(=O)OCc1cncs1)Cc1ccccc1
(A) < 0.1 µM
